# System: Escherichia coli
# experiment: Antibacterial activity against Escherichia coli W4573 assessed as bacterial growth inhibition by CLSI protocol based assay
# Assay type: functional
measured.parameter: MIC (µg/mL)
Answers are plain numbers, in µg/mL.

These solved cases illustrate the format of a correct answer.
O=C1COc2ccc(N3C(=O)O[C@H]4C[C@@H](NCCn5c(=O)cnc6ccc(F)cc65)CC[C@@H]43)nc2N1 | 0.25
COc1ccc2ncc(=O)n(CCN[C@H]3CC[C@H]4[C@H](C3)OC(=O)N4c3ccc4c(n3)NC(=O)CO4)c2n1 | 0.25
N#Cc1cnc2ccc(=O)n(CCN[C@H]3CC[C@H]4[C@H](C3)OC(=O)N4c3ccc4c(n3)NC(=O)CO4)c2c1 | 0.25
N#Cc1ccc2c(ccc(=O)n2CCN[C@H]2CC[C@H]3[C@H](C2)OC(=O)N3c2ccc3c(n2)NC(=O)CO3)c1 | 4
COc1ccc2ccc(=O)n(CCN[C@@H]3CC[C@@H]4[C@@H](C3)OC(=O)N4c3ccc4c(n3)NC(=O)CO4)c2n1 | 0.03
COc1ccc2ccc(=O)n(CCN[C@H]3CC[C@H]4[C@@H](C3)OC(=O)N4c3ccc4c(n3)NC(=O)CO4)c2n1 | 0.5

// each molecule listed below needs its MIC
1. COc1cnc2ccc(=O)n(CCN[C@H]3CC[C@H]4[C@H](C3)OC(=O)N4c3ccc4c(n3)NC(=O)CO4)c2c1
2. N#Cc1ccc2ccc(=O)n(CCCN[C@H]3CC[C@H]4[C@H](C3)OC(=O)N4c3ccc4c(n3)NC(=O)CO4)c2c1

**Result**
[0.25, 0.06]

Cited source for all entries: ChEMBL document CHEMBL5143607
